# inhibition at 20 µM annotations
# SYSTEM TESTED: JARID1B (Homo sapiens)
# Construct: The FLAG tagged full length JARID1B enzyme was expressed in Sf21 insect cells using FLAG-JARID1B baculoviruses; FLAG (N); made in house; host or cells: Sf21 insect cells (baculovirus)
# Sequence (Q9UGL1 whole entry): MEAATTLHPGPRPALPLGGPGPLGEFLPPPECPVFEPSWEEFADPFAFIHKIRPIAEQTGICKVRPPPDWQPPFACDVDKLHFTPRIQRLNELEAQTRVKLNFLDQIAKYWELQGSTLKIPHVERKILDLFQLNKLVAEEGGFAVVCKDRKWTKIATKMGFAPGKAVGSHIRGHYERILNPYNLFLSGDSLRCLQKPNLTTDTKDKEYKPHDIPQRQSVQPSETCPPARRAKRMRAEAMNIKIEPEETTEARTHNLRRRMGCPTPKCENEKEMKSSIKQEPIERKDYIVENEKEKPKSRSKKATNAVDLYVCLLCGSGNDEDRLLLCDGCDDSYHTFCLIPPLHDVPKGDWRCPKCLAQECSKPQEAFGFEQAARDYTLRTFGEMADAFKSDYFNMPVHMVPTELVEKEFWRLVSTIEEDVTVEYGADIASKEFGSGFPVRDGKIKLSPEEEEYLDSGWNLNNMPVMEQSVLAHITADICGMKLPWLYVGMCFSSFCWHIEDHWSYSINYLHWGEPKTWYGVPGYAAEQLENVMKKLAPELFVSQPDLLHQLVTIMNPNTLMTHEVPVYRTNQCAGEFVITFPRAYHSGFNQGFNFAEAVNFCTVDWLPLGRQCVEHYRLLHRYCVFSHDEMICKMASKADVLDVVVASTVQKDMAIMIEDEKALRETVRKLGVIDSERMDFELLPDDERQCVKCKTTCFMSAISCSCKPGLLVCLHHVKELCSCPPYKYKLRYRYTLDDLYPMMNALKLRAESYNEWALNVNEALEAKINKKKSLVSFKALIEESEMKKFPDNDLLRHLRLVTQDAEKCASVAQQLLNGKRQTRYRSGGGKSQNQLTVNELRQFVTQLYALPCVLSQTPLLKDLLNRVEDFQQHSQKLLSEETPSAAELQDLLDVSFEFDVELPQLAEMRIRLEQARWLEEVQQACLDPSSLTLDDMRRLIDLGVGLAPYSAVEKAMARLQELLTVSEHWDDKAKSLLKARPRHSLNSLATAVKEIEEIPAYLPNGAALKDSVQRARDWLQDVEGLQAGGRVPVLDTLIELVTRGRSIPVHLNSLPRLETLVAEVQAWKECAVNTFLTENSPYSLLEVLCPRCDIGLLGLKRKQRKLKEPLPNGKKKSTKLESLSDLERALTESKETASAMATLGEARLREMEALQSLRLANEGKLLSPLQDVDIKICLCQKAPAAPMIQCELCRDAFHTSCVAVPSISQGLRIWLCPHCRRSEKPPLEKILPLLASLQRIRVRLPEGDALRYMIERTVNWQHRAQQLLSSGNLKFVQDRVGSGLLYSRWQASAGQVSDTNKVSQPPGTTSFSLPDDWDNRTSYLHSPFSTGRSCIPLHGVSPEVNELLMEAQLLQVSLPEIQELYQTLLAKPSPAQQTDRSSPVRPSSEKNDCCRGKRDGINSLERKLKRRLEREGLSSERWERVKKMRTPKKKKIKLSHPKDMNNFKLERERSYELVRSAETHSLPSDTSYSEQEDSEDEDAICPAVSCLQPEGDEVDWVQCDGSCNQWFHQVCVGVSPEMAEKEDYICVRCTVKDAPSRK
# ASSAY COMMENT: FLAG-JARID1B histone demethylase assay with AlphaScreen detection (HTS and dose response);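 note: FLAG-tagged JARID1B at 4 nM acting on a biotinylated H3K4me3 peptide, demethylation read by AlphaScreen luminescence, with hits checked against bio-H3K4me2 without enzyme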
# Type: biochemical
# TEST CONDITIONS: high-throughput screen, compound 20 μM, standard demethylase conditions (10 μM α-KG, 50 μM Fe (II)); read-out: Inhibitory effect (percent)
EXPERIMENTAL READOUT: inhibition at 20 µM (%)

INSERT INTO measurements (molecule, experimental_readout, readout_value) VALUES
  ('CCSc1nnc(-c2cc(OC)cc(OC)c2)o1', 'inhibition at 20 µM', 32.8),
  ('C=CCn1c(Cc2nc3ccccc3[nH]2)n[nH]c1=S', 'inhibition at 20 µM', 32.8),
  ('O=C(O)CC(CC(=O)Nc1cc(C(F)(F)F)ccc1N1CCOCC1)c1ccccc1 (stereo not drawn)', 'inhibition at 20 µM', 104),
  ('CC(=O)O[C@H]1C[C@@]2(C)[C@@H](C[C@@H](O)[C@H]3[C@@]4(C)CC[C@@H](O)[C@@H](C)[C@@H]4CC[C@@]32C)/C1=C(\CCC=C(C)C)C(=O)O [YU033837, FUSIDIC ACID, reference compound]', 'inhibition at 20 µM', 63.1),
  ('COc1cc(C=C[N+](=O)[O-])ccc1OCc1cccc(C(=O)O)c1 (single isomer, unassigned)', 'inhibition at 20 µM', 101),
  ('COC(=O)Nc1nnc(CC2CCCC2)s1', 'inhibition at 20 µM', 33);
